The reader will find reported Relative Emax values listed item by item below.
# target_of_assay: KOR (Homo sapiens, UniProt P41145)
# Sequence (P41145 whole entry): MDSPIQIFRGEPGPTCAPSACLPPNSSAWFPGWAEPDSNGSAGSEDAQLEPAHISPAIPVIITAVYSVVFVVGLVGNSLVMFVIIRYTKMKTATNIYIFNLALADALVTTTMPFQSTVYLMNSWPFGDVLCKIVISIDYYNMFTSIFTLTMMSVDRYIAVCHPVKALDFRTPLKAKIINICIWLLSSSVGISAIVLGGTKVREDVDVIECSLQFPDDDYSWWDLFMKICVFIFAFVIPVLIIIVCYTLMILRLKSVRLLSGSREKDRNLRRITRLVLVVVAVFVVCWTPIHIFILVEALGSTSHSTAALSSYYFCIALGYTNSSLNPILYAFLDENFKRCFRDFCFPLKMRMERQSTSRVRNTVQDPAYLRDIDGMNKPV
# experiment_summary: biochemical
# Format: biochemical
endpoint: Relative Emax

molecule	target_of_assay	endpoint	result
COC(=O)C1CC(OC(=O)C(Cl)Cl)C(=O)C2C1(C)CCC1C(=O)OC(c3ccoc3)CC12C (stereo not shown)	KOR (Homo sapiens, UniProt P41145)	Relative Emax	103 +/− 14%
COC(=O)C1CC(OC(=O)C(C)Cl)C(=O)C2C1(C)CCC1C(=O)OC(c3ccoc3)CC12C [RB-55, (22-R,S)-22-Chloro-22-methylsalvinorin A]	KOR (Homo sapiens, UniProt P41145)	Relative Emax	83 +/− 10%
COC(=O)[C@@H]1C[C@H](OC(=O)CBr)C(=O)[C@H]2[C@@]1(C)CC[C@H]1C(=O)O[C@H](c3ccoc3)C[C@]21C	KOR (Homo sapiens, UniProt P41145)	Relative Emax	76 +/− 7%
COC(=O)C1CC(OC(=O)C(C)Cl)C(=O)C2C1(C)CCC1C(=O)OC(c3ccoc3)CC12C (single isomer, unassigned) [RB-55-1, (22-S)-22-Chloro-22-methylsalvinorin A]	KOR (Homo sapiens, UniProt P41145)	Relative Emax	99 +/− 12%

Hello, the source for this data is paper PMC2752672, in case you need it.
